# targetEntity: Delta-type opioid receptor (Rattus norvegicus, UniProt P33533)
# Sequence (P33533 whole entry): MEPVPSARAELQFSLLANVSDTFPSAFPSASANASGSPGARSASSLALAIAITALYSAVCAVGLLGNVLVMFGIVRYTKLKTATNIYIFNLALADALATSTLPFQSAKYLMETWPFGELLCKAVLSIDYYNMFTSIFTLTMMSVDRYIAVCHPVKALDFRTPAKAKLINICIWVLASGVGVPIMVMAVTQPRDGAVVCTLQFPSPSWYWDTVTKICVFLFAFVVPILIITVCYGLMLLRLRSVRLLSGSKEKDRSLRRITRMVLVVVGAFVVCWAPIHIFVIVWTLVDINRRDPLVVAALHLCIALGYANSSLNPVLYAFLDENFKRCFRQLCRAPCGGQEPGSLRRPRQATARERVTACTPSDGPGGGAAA
# assayName: Binding affinity against delta-opioid receptor by using [3H]DADLE as radioligand in rat brain
Where a SMILES comes first, the peptide text is derived from it.
Please respond with 1 when measured Ki is strictly beneath 4 µM, and with 0 in all other cases.

Report whether reported Ki is lower than 4 µM (strictly) for NC(=O)[C@H](CCNC(=O)[C@H](Cc1ccccc1)NC(=O)[C@H](CCCN=C(N)N)NC(=O)[C@@H](N)Cc1ccc(O)cc1)NC(=O)[C@H](Cc1ccccc1)NC(=O)[C@H](CCCN=C(N)N)NC(=O)[C@@H](N)Cc1ccc(O)cc1 (HELM PEPTIDE1{Y.R.F.[Dab].[am]}|PEPTIDE2{Y.R.F}$PEPTIDE1,PEPTIDE2,4:R3-3:R2$$$V2.0)
1

Determine if NCCCC[C@H](NC(=O)[C@H](Cc1ccccc1)NC(=O)[C@@H](CCCN=C(N)N)NC(=O)[C@@H](N)Cc1ccc(O)cc1)C(N)=O shows Ki strictly lower than 4 µM.
1

Determine whether this molecule shows Ki lower than 4 µM (ties excluded): C[N+](C)(C)CC[C@H](NC(=O)[C@H](Cc1ccccc1)NC(=O)[C@H](CCCNC(=N)N)NC(=O)[C@H](Cc1ccc(O)cc1)[N+](C)(C)C)C(N)=O
0

Please state whether Ki is below 4 µM for C[N+](C)(C)CC[C@H](NC(=O)[C@H](Cc1ccccc1)NC(=O)[C@H](CCCN=C(N)N)NC(=O)[C@@H](N)Cc1ccc(O)cc1)C(N)=O
0

Strictly below 4 µM in Ki? C[N+](C)(C)[C@@H](Cc1ccc(O)cc1)C(=O)N[C@H](CCCN=C(N)N)C(=O)N[C@@H](Cc1ccccc1)C(=O)N[C@@H](CCCN)C(N)=O
0

State whether 4 µM exceeds Ki recorded for C[N+](C)(C)CCC[C@H](NC(=O)[C@H](Cc1ccccc1)NC(=O)[C@@H](CCCN=C(N)N)NC(=O)[C@@H](N)Cc1ccc(O)cc1)C(N)=O .
1

Determine whether this molecule shows Ki lower than 4 µM (ties excluded): C[N+](C)(C)CCCC[C@H](NC(=O)[C@H](Cc1ccccc1)NC(=O)[C@@H](CCCNC(=N)N)NC(=O)[C@@H](N)Cc1ccc(O)cc1)C(N)=O
1

Does the reported Ki of the following molecule sit strictly below 4 µM? C[N+](C)(C)[C@@H](Cc1ccc(O)cc1)C(=O)N[C@H](CCCN=C(N)N)C(=O)N[C@@H](Cc1ccccc1)C(=O)N[C@@H](CCCCN)C(N)=O
0
